EXPERIMENT_SUMMARY: Half life in Sprague-Dawley rat at 1 mg/kg, iv or 3 mg/kg, po
Assay type: ADME, organism-based
CONDITION_SET: Sprague-Dawley, in vivo

ITEM_SMILES	READOUT_UNITS	half-life
CC(C)N1C(=O)[C@H](NC(=O)[C@@H](Cc2ccccc2OC(F)(F)F)NC(=O)c2ccc(F)cc2C(F)(F)F)CCc2ccccc21	h	2.6
CC(C)N1C(=O)[C@H](NC(=O)[C@@H](Cc2ccccc2F)NC(=O)c2ccc(F)cc2C(F)(F)F)CCc2cc(Cl)ccc21	h	2.8
CC(C)N1C(=O)[C@H](NC(=O)[C@@H](Cc2cc(F)ccc2F)NC(=O)c2ccc(F)cc2C(F)(F)F)CCc2cc(Cl)ccc21	h	2.2
CC(C)N1C(=O)[C@H](NC(=O)[C@@H](Cc2ccccc2OC(F)(F)F)NC(=O)c2ccc(F)cc2C(F)(F)F)CCc2cc(Cl)ccc21	h	2.6
